tested-target: His-GST-TVMV-hRIPK1(1-324) (Homo sapiens (Human))
Sequence (Q13546 1-324): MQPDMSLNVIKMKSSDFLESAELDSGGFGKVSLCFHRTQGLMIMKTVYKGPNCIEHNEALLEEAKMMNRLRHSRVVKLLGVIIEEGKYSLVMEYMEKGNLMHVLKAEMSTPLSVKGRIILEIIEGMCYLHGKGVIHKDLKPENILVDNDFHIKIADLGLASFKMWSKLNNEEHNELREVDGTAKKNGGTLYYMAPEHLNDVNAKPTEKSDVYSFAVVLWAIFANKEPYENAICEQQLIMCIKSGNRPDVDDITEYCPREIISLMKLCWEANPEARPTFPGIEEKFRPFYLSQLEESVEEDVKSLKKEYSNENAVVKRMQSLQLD
experiment-summary: RIPK1 HTRF Binding Assay
experimental-context: HTRF binding, 1 h at rt; read-out: RIPK1 (IC50)
Procedure: A solution was prepared containing 0.2 nM Anti GST-Tb (Cisbio, 61GSTTLB), 90.6 nM probe and 1 nM His-GST-TVMV-hRIPK1(1-324) in FRET Buffer (20 mM HEPES, 10 mM MgCl2, 0.015% Brij-35, 4 mM DTT, 0.05 mg/mL BSA). […] FRET was measured using the EnVision plate reader (Excitation: 340 nm, Emission: 520 nm/[…]). Total signal (0% inhibition) was calculated from wells containing 10 nL DMSO only. […]
Structures can show the parent of a compound that is named as a salt.
List of log10 of IC50 values.
outcome-measure: log10 of IC50 (log10 of the value in nM)

>  <compound>
COc1ncc(-c2ccc3nc(NC(C)=O)c(C)n3n2)cc1C(=O)NCc1cccc(OC(F)(F)F)c1 [Example 257, TFA]

>  <tested-target>
His-GST-TVMV-hRIPK1(1-324) (Homo sapiens (Human))

>  <log10 of IC50>
1.79

$$$$
>  <compound>
CC(=O)Nc1cn2nc(-c3cc(C(=O)N[C@H](C)c4cc(OC(F)(F)F)ccc4F)c(Cl)cc3F)ccc2n1 [Example 392]

>  <tested-target>
His-GST-TVMV-hRIPK1(1-324) (Homo sapiens (Human))

>  <log10 of IC50>
1.56

$$$$
>  <compound>
CC(=O)Nc1cn2nc(-c3cc(C(=O)NCc4c(F)cccc4OCC(F)(F)F)c(C)nc3C)ccc2n1 [Example 325]

>  <tested-target>
His-GST-TVMV-hRIPK1(1-324) (Homo sapiens (Human))

>  <log10 of IC50>
0.95

$$$$
>  <compound>
[2H]C([2H])([2H])[C@@H](NC(=O)c1cc(-c2ccc3nc(NC(C)=O)cn3n2)c(C)nc1C)c1cc(C(F)(F)F)ccc1F [Example 67]

>  <tested-target>
His-GST-TVMV-hRIPK1(1-324) (Homo sapiens (Human))

>  <log10 of IC50>
1.15

$$$$
>  <compound>
[2H]C([2H])([2H])Oc1nc(C)c(-c2ccc3nc(NC(C)=O)cn3n2)cc1C(=O)NCc1ccccc1OC(F)(F)F [Example 178]

>  <tested-target>
His-GST-TVMV-hRIPK1(1-324) (Homo sapiens (Human))

>  <log10 of IC50>
0.60

$$$$
>  <compound>
COc1ncc(-c2ccc3nc(NC(C)=O)cn3n2)cc1C(=O)NCc1ccccc1OC(C)C [Example 165]

>  <tested-target>
His-GST-TVMV-hRIPK1(1-324) (Homo sapiens (Human))

>  <log10 of IC50>
0.60

$$$$
